- Tested on: HEK-293T
- Protocol Text: Multiplex assay against HEK293T
- Type: toxicity, cell-based
- Run Parameters: human, 24 h, 1 µM, compound concentration 1 uM, replicate 2
Binary call on Population Healthy Nuclei (%) with cut-off 80%: strictly below means Satisfied, and equality or higher means Not satisfied.

- Compound: "CCC(=O)O[C@]1(C(=O)SCF)[C@H](C)C[C@H]2[C@@H]3C[C@H](F)C4=CC(=O)C=C[C@]4(C)[C@@]3(F)[C@@H](O)C[C@@]21C [FLUTICASONE PROPIONATE]"
  Discrete Label: "Satisfied"
- Compound: "Cc1nc(Cc2cccc(C(F)(F)F)c2)sc1-c1ccc(C(N)=O)nc1 [TP-024n]"
  Discrete Label: "Satisfied"
- Compound: "CC(C)(C)c1cnc(CSc2cnc(NC(=O)C3CCNCC3)s2)o1"
  Discrete Label: "Not satisfied"
- Compound: "CN(C)C/C=C/C(=O)Nc1cc2c(Nc3ccc(F)c(Cl)c3)ncnc2cc1O[C@H]1CCOC1.O=C(O)/C=C\\C(=O)O.O=C(O)/C=C\\C(=O)O [AFATINIB DIMALEATE]"
  Discrete Label: "Satisfied"
- Compound: "CCn1c(-c2nonc2N)nc2cnc(Oc3cccc(NC(=O)c4ccc(OCCN5CCOCC5)cc4)c3)cc21 [GSK-269962A]"
  Discrete Label: "Satisfied"

###

- System: U2OS
- Protocol Text: Multiplex assay against U2OS
- Assay type: toxicity, cell-based
- Run Parameters: human, 24 h, 10 µM, compound concentration 10 uM, replicate 1
Experimental Readout: Total Cell Count

- Compound: "CC(=O)c1cc(-c2cc(C(=O)NC3CC3)ccc2C)c2ncccn12"
  Measured On: "U2OS"
  Result Number: 250
- Compound: "N#Cc1cnc(Nc2cc(NC[C@H]3CNCCO3)c(C(F)(F)F)cn2)cn1 [SRA-737]"
  Measured On: "U2OS"
  Result Number: 243
- Compound: "CNc1oc(-c2cccc3ccccc23)nc1C#N"
  Measured On: "U2OS"
  Result Number: 352
- Compound: "Cc1cn(-c2cc(NC(=O)c3ccc4c(c3)CN(c3cncnc3)C[C@@H]4C)cc(C(F)(F)F)c2)cn1"
  Measured On: "U2OS"
  Result Number: 254
- Compound: "CC(C)N1CCC(C)(C)c2cc(C#Cc3ccc(C(=O)O)cc3)ccc21"
  Measured On: "U2OS"
  Result Number: 566
- Compound: "Nc1nc2c(c(N3CCNCC3)n1)CCC1=C2[C@@H]2CCCC[C@@H]2O1"
  Measured On: "U2OS"
  Result Number: 140
- Compound: "COc1ccc(NS(=O)(=O)c2sc3ccc(Cl)cc3c2C)cc1N1CCNCC1.Cl"
  Measured On: "U2OS"
  Result Number: 200
- Compound: "O=C(O)c1ccc2cc(-c3ccc(O)c(C45CC6CC(CC(C6)C4)C5)c3)ccc2c1 [O-DEMETHYLATED ADAPALENE]"
  Measured On: "U2OS"
  Result Number: 206
- Compound: "CCC(=O)O[C@]1(C(=O)SCF)[C@H](C)C[C@H]2[C@@H]3C[C@H](F)C4=CC(=O)C=C[C@]4(C)[C@@]3(F)[C@@H](O)C[C@@]21C [FLUTICASONE PROPIONATE]"
  Measured On: "U2OS"
  Result Number: 189
- Compound: "Cc1cc2c(cc1N1C(=O)c3cccc4c(CCCO)ccc(c34)C1=O)n(C)c(=O)n2C"
  Measured On: "U2OS"
  Result Number: 159
- Compound: "CCn1c(-c2nonc2N)nc2cnc(Oc3cccc(NC(=O)c4ccc(OCCN5CCOCC5)cc4)c3)cc21 [GSK-269962A]"
  Measured On: "U2OS"
  Result Number: 138
- Compound: "COc1cc2c(Nc3ccc(NC(=O)c4ccccc4)cc3)ncnc2cc1OCCCN1CCOCC1"
  Measured On: "U2OS"
  Result Number: 237
- Compound: "Cc1nc(Cc2cccc(C(F)(F)F)c2)sc1-c1ccc(C(N)=O)nc1 [TP-024n]"
  Measured On: "U2OS"
  Result Number: 241
- Compound: "Nc1ccc(C(=O)Nc2cccc(-c3nc(N4CCOCC4)c4oc5ncccc5c4n3)c2)cn1"
  Measured On: "U2OS"
  Result Number: 201
- Compound: "CNC(=O)c1cc(Oc2ccc(NC(=O)Nc3cc(C(C)(C)C)nn3-c3ccc4ncccc4c3)c(F)c2)ccn1 [REBASTINIB]"
  Measured On: "U2OS"
  Result Number: 227
- Compound: "Cl.Cl.NC1(c2ccc(-c3nc4ccn5c(=O)[nH]nc5c4cc3-c3ccccc3)cc2)CCC1"
  Measured On: "U2OS"
  Result Number: 268
- Compound: "CCc1cc2c(cc1CC)CC(NC[C@H](O)c1ccc(O)c3[nH]c(=O)ccc13)C2 [INDACATEROL]"
  Measured On: "U2OS"
  Result Number: 174

###

- Test system: U2OS
- Protocol Text: Multiplex assay against U2OS
- Assay type: toxicity, cell-based
- Run Parameters: human, 12 h, 10 µM, compound concentration 10 uM, replicate 2
Values of Population Mitochondria Different-Phenotype (%) greater than or equal to 40% map to 1.0; values below map to 0.0.

- Compound: "Cl.Cl.NC1(c2ccc(-c3nc4ccn5c(=O)[nH]nc5c4cc3-c3ccccc3)cc2)CCC1"
  Discrete Label: 1.0
- Compound: "COc1ccc(NS(=O)(=O)c2sc3ccc(Cl)cc3c2C)cc1N1CCNCC1.Cl"
  Discrete Label: 1.0
- Compound: "O=C(O)c1ccc2cc(-c3ccc(O)c(C45CC6CC(CC(C6)C4)C5)c3)ccc2c1"
  Discrete Label: 0.0
- Compound: "COc1cc2c(NC3CCN(C(C)C)CC3)nc(N3CCC(F)(F)CC3)nc2cc1OCCCN1CCCC1"
  Discrete Label: 1.0
- Compound: "CC(=O)c1cc(-c2cc(C(=O)NC3CC3)ccc2C)c2ncccn12"
  Discrete Label: 0.0
- Compound: "Nc1ccc(C(=O)Nc2cccc(-c3nc(N4CCOCC4)c4oc5ncccc5c4n3)c2)cn1"
  Discrete Label: 1.0
- Compound: "CN(C)CCOc1ccc(-c2nc(-c3ccncc3)c(-c3ccc4c(c3)CC/C4=N\\O)[nH]2)cc1"
  Discrete Label: 0.0
- Compound: "CNc1oc(-c2cccc3ccccc23)nc1C#N"
  Discrete Label: 0.0
- Compound: "CNC(=O)c1cc(Oc2ccc(NC(=O)Nc3cc(C(C)(C)C)nn3-c3ccc4ncccc4c3)c(F)c2)ccn1"
  Discrete Label: 1.0
- Compound: "N#Cc1cnc(Nc2cc(NC[C@H]3CNCCO3)c(C(F)(F)F)cn2)cn1"
  Discrete Label: 0.0
- Compound: "CCOc1cc(N2CCC(O)CC2)ccc1Nc1ncc2c(n1)N(C1CCCC1)CCC(=O)N2C"
  Discrete Label: 0.0
- Compound: "Nc1nc2c(c(N3CCNCC3)n1)CCC1=C2[C@@H]2CCCC[C@@H]2O1"
  Discrete Label: 1.0
- Compound: "c1ccc2oc(-c3csc(C4CCN(Cc5nc6ncccc6[nH]5)CC4)n3)cc2c1"
  Discrete Label: 0.0
- Compound: "Cc1cn(-c2cc(NC(=O)c3ccc4c(c3)CN(c3cncnc3)C[C@@H]4C)cc(C(F)(F)F)c2)cn1"
  Discrete Label: 0.0
- Compound: "CC(C)N1CCC(C)(C)c2cc(C#Cc3ccc(C(=O)O)cc3)ccc21"
  Discrete Label: 0.0
- Compound: "CCc1cc2c(cc1CC)CC(NC[C@H](O)c1ccc(O)c3[nH]c(=O)ccc13)C2"
  Discrete Label: 1.0
- Compound: "Cc1cc2c(cc1N1C(=O)c3cccc4c(CCCO)ccc(c34)C1=O)n(C)c(=O)n2C"
  Discrete Label: 1.0
- Compound: "Cc1nc(Cc2cccc(C(F)(F)F)c2)sc1-c1ccc(C(N)=O)nc1 [TP-024n]"
  Discrete Label: 0.0
- Compound: "CCCn1c(=O)c2[nH]c(C34CC5CC(CC3C5)C4)nc2n(CCC)c1=O"
  Discrete Label: 1.0
- Compound: "CC(C)(C)c1cnc(CSc2cnc(NC(=O)C3CCNCC3)s2)o1"
  Discrete Label: 1.0
- Compound: "COc1cc2c(Nc3ccc(NC(=O)c4ccccc4)cc3)ncnc2cc1OCCCN1CCOCC1"
  Discrete Label: 0.0
- Compound: "CCn1c(-c2nonc2N)nc2cnc(Oc3cccc(NC(=O)c4ccc(OCCN5CCOCC5)cc4)c3)cc21 [GSK-269962A]"
  Discrete Label: 1.0

###

- System: HEK-293T
- Protocol Text: Multiplex assay against HEK293T
- Assay type: toxicity, cell-based
- Run Parameters: human, 48 h, 1 µM, compound concentration 1 uM, replicate 2
Experimental Readout: Population Mitotic Cells (%)

- Compound: "Cc1cc2c(cc1N1C(=O)c3cccc4c(CCCO)ccc(c34)C1=O)n(C)c(=O)n2C"
  Experimental Readout: "Population Mitotic Cells (%)"
  Units Text: "%"
  Result Number: 66
- Compound: "Cc1nc(Cc2cccc(C(F)(F)F)c2)sc1-c1ccc(C(N)=O)nc1 [TP-024n]"
  Experimental Readout: "Population Mitotic Cells (%)"
  Units Text: "%"
  Result Number: 82
- Compound: "CC(C)N1CCC(C)(C)c2cc(C#Cc3ccc(C(=O)O)cc3)ccc21"
  Experimental Readout: "Population Mitotic Cells (%)"
  Units Text: "%"
  Result Number: 88
- Compound: "Cl.Cl.Nc1ncnc2c1c(-c1cccc(OCc3ccccc3)c1)cn2[C@H]1C[C@@H](CN2CCC2)C1"
  Experimental Readout: "Population Mitotic Cells (%)"
  Units Text: "%"
  Result Number: 35
- Compound: "COc1cc2c(NC3CCN(C(C)C)CC3)nc(N3CCC(F)(F)CC3)nc2cc1OCCCN1CCCC1"
  Experimental Readout: "Population Mitotic Cells (%)"
  Units Text: "%"
  Result Number: 82
- Compound: "CCn1c(-c2nonc2N)nc2cnc(Oc3cccc(NC(=O)c4ccc(OCCN5CCOCC5)cc4)c3)cc21 [GSK-269962A]"
  Experimental Readout: "Population Mitotic Cells (%)"
  Units Text: "%"
  Result Number: 58
- Compound: "CCC(=O)O[C@]1(C(=O)SCF)[C@H](C)C[C@H]2[C@@H]3C[C@H](F)C4=CC(=O)C=C[C@]4(C)[C@@]3(F)[C@@H](O)C[C@@]21C [FLUTICASONE PROPIONATE]"
  Experimental Readout: "Population Mitotic Cells (%)"
  Units Text: "%"
  Result Number: 90
- Compound: "CC(=O)c1cc(-c2cc(C(=O)NC3CC3)ccc2C)c2ncccn12"
  Experimental Readout: "Population Mitotic Cells (%)"
  Units Text: "%"
  Result Number: 91
- Compound: "COc1ccc(NS(=O)(=O)c2sc3ccc(Cl)cc3c2C)cc1N1CCNCC1.Cl"
  Experimental Readout: "Population Mitotic Cells (%)"
  Units Text: "%"
  Result Number: 84
- Compound: "CNc1oc(-c2cccc3ccccc23)nc1C#N"
  Experimental Readout: "Population Mitotic Cells (%)"
  Units Text: "%"
  Result Number: 81
- Compound: "CCCn1c(=O)c2[nH]c(C34CC5CC(CC3C5)C4)nc2n(CCC)c1=O [ROLOFYLLINE]"
  Experimental Readout: "Population Mitotic Cells (%)"
  Units Text: "%"
  Result Number: 91
- Compound: "Nc1ccc(C(=O)Nc2cccc(-c3nc(N4CCOCC4)c4oc5ncccc5c4n3)c2)cn1"
  Experimental Readout: "Population Mitotic Cells (%)"
  Units Text: "%"
  Result Number: 38
- Compound: "CCc1cc2c(cc1CC)CC(NC[C@H](O)c1ccc(O)c3[nH]c(=O)ccc13)C2 [INDACATEROL]"
  Experimental Readout: "Population Mitotic Cells (%)"
  Units Text: "%"
  Result Number: 77
- Compound: "O=C(O)c1ccc2cc(-c3ccc(O)c(C45CC6CC(CC(C6)C4)C5)c3)ccc2c1 [O-DEMETHYLATED ADAPALENE]"
  Experimental Readout: "Population Mitotic Cells (%)"
  Units Text: "%"
  Result Number: 84
- Compound: "Nc1nc2c(c(N3CCNCC3)n1)CCC1=C2[C@@H]2CCCC[C@@H]2O1"
  Experimental Readout: "Population Mitotic Cells (%)"
  Units Text: "%"
  Result Number: 87
